System: differentiated HL-60 cells
test method notes: Ligand-induced calcium mobilization (Fluo-3 AM) in differentiated HL-60 cells
Type: cell-based, Human
stated conditions: differentiated HL-60 cells incubated 30 min with 50 nM of indicated DBP, then C5a
Description: Cells and cell culture: Human promyelocytic cell line HL-60 was obtained from ATCC (Rockville, Md.) and cultured in RPMI 1640 medium supplemented with 10% FBS. Differentiation of HL-60 cells was initiated with 250 μM Bt2cAMP for 48 hours. Ligand-induced calcium mobilization. […] Fluorescence was then measured immediately using a Perkin-Elmer LS-5 fluorometer at 505 nm excitation, 526 nm emission for Fluo-3 AM. Fmax was measured by treating labeled cells with 60 μM digitonin. […]
property measured: enhancement of intracellular Ca2+ flux in response to C5a

domain I: truncated reDBP, residues 1-191 (EAFRKDPKEYANQFMWEYST) ... significantly enhanced
(1-112): truncated version of DBP domain I expressed in E. coli (LERGRDYEKNKVCKEFSHLGKEDFTSLSLVLYSRKFPSGT) ... lack enhancing activity
domain I & II: truncated reDBP, residues 1-378 (LERGRDYEKNKVCKEFSHLGKEDFTSLSLVLYSRKFPSGT) ... significantly enhanced
(1-125): truncated version of DBP domain I expressed in E. coli (LERGRDYEKNKVCKEFSHLGKEDFTSLSLVLYSRKFPSGT) ... lack enhancing activity
